# TARGET OR SYSTEM: T1, GFP-9S library array, motif 4 ND N98T;D124Q (synthetic construct, N98T;D124Q)
# T1 chain: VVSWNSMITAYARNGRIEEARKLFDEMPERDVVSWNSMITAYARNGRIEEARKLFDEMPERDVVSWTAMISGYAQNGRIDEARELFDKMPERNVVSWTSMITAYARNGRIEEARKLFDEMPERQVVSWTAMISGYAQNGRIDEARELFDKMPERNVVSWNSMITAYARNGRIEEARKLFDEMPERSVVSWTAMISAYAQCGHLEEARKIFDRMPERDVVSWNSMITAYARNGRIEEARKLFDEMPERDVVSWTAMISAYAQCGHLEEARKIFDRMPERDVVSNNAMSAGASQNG
# ASSAY TEXT: high-throughput RNA pulldown from lysate on Ni-NTA beads; HRP: 50 mM Tris pH 8, 150 mM NaCl, 1 mM beta-mercaptoethanol, 50 ug/ml BSA, 3 ug/ml yeast RNA, 0.5% heparin; ITC and FP: Tris pH 8, 200 mM KCl, 5% glycerol; MST: 50 mM Tris pH 8, 200 mM NaCl, 1 mM DTT, BSA, heparin, 0.05% Tween 20
# CONDITION DESCRIPTION: tags: N-terminal His-eGFP; label: 5' Cy5
So I've got a bunch of binders here, and I need their Kd values.
# output: numeric value plus its unit

BINDER: AUUACACGUGA (ssRNA) [Cy5-rpoA]
Kd: 157 nM

The record that follows has no Kd shown yet.
Name the reported Kd value associated with the binder AUUAGACGUGA (ssRNA) [Cy5-rpoA-G]
128 nM

Origin of measurements: paper PMC8809517
